Reference for the values: patent US11613546B2

experiment: Cytotoxicity assay in MT-4 cells; type: cell-based; conditions: human, uninfected MT-4 cells, 5 days, Cell Titer Glo; read-out: CC50
# CC50 at 5 days per record follows
Output spec: scalar in µM, unitless text.

Some compounds with known CC50 at 5 days results, for comparison:
C[C@H]1CC[C@@H](CF)N2CN1C(=O)c1c(O)c(=O)c(C(=O)NCc3c(F)cc(F)cc3F)cn12 [Example C77] : 15.7
O=C(NCc1c(F)cc(F)cc1F)c1cn2c(c(O)c1=O)C(=O)N1CCCCN2C1Cc1ccccc1 (stereo not shown) [Example C6] : 9.88
C[C@H]1C=C[C@H](C)N2CN1C(=O)c1c(O)c(=O)c(C(=O)NCc3ccc(F)cc3F)cn12 [Example C30] : 35.8

Below: the item to evaluate.
Q. // query CC50 at 5 days value for entry COC[C@@H]1C=C[C@H](C)N2CN1n1cc(C(=O)NCc3ccc(F)cc3F)c(=O)c(O)c1C2=O [Example C82]
A. 16.8

###

system: MT-4 cells; test: Cytotoxicity assay in MT-4 cells; format: cell-based; conditions: uninfected MT-4 cells, 5 days, Cell Titer Glo; read-out: CC50
Decision: CC50 beneath 40 µM gives label 1; CC50 meeting or exceeding 40 µM gives label 0.

C[C@H]1C=C[C@]2(CCOC2)N2CN1C(=O)c1c(O)c(=O)c(C(=O)NCc3c(F)cc(F)cc3F)cn12 : label 1
C[C@@H]1CCC(C)(C)N2CN1n1cc(C(=O)NCc3ccc(F)cc3F)c(=O)c(O)c1C2=O : label 0
CO[C@@H]1[C@H](OC)[C@H](C)N2CN([C@@H]1C)n1cc(C(=O)NCc3c(F)cc(F)cc3F)c(=O)c(O)c1C2=O : label 0
C[C@@H]1N2CN([C@@H](C)CC1(F)F)n1cc(C(=O)NCc3ccc(F)cc3F)c(=O)c(O)c1C2=O : label 0
O=C(NCc1c(F)cc(F)cc1F)c1cn2c(c(O)c1=O)C(=O)N1Cc3cc(F)ccc3CN2C1 [Example C3] : label 1

Then this compound:
Q. Is the reported CC50 for "C[C@@H]1CCCCN2CN1n1cc(C(=O)NCc3ccc(F)cc3F)c(=O)c(O)c1C2=O" strictly below 40 µM?
A. label 1

###

# pEC50 per record follows
system: HIV-1 (IIIB); assay: Antiviral assay in MT-4 cells; format: cell-based; settings: HIV-1 IIIB infected MT-4 cells, 5 days, Cell Titer Glo; read-out: MT4 EC50
By convention, pEC50 is the negative base-10 log of a molar concentration.

C[C@H]1C=CC(C)(C)N2CN1n1cc(C(=O)NCc3ccc(F)cc3F)c(=O)c(O)c1C2=O [Example C91] : 8.72
C[C@@H]1CC[C@H](CF)N2CN1n1cc(C(=O)NCc3c(F)cc(F)cc3F)c(=O)c(O)c1C2=O : 8.89
C[C@H]1C/C=C\CN2CN1n1cc(C(=O)NCc3ccc(F)cc3F)c(=O)c(O)c1C2=O [Example C41] : 8.92
C[C@H]1C=C[C@]2(CCOC2)N2CN1C(=O)c1c(O)c(=O)c(C(=O)NCc3c(F)cc(F)cc3F)cn12 : 9.22
C[C@H]1C/C=C\CN2CN1n1cc(C(=O)NCc3ccc(F)cc3F)c(=O)c(O)c1C2=O [Example C43] : 8.28
C[C@H]1C=C[C@H](C)N2CN1C(=O)c1c(O)c(=O)c(C(=O)NCc3c(F)cc(F)cc3F)cn12 [Example C25] : 9.00
C[C@@H]1/C=C\C[C@@H](C)N2CN1C(=O)c1c(O)c(=O)c(C(=O)NCc3c(F)cc(F)cc3F)cn12 : 8.37
C[C@H]1C=CC(C)(C)N2CN1C(=O)c1c(O)c(=O)c(C(=O)NCc3c(F)cc(F)cc3F)cn12 : 8.82

Q. // query pEC50 value for entry O=C(NCc1c(F)cc(F)cc1F)c1cn2c(c(O)c1=O)C(=O)N1Cc3ccc(F)cc3CN2C1 [Example C2]
A. 7.74

Q. // query pEC50 value for entry O=C(NCc1c(F)cc(F)cc1F)c1cn2c(c(O)c1=O)C(=O)N1Cc3cc(F)ccc3CN2C1 [Example C3]
A. 8.77

Q. // query pEC50 value for entry C[C@H]1CC[C@H](C)N2CN1C(=O)c1c(O)c(=O)c(C(=O)NCc3c(F)cc(F)cc3F)cn12 [Example C66]
A. 8.85

###

tested on: pLai RLuc reporter virus; test: HIV MT-4 serum shift antiviral reporter assay; type: cell-based; conditions: Human immunodeficiency virus 1, 72 h, read-out: RLUC 50% HS (nM), HS/CCM: 50% human serum, 72 h, Renilla Glo
Decision: EC50 beneath 200 nM gives YES; EC50 meeting or exceeding 200 nM gives NO.

C[C@@H]1C[C@@H](C(F)F)[C@H](C)N2CN1n1cc(C(=O)NCc3c(F)cc(F)cc3F)c(=O)c(O)c1C2=O : YES
C[C@@H]1CC(F)(F)[C@H](C)N2CN1n1cc(C(=O)NCc3ccc(F)cc3F)c(=O)c(O)c1C2=O : YES
CO[C@@H]1[C@H](OC)[C@H](C)N2CN([C@@H]1C)n1cc(C(=O)NCc3c(F)cc(F)cc3F)c(=O)c(O)c1C2=O : YES
C[C@H]1CCC2(CCC2)N2CN1C(=O)c1c(O)c(=O)c(C(=O)NCc3c(F)cc(F)cc3F)cn12 : NO

Then this compound:
Q. Is the reported EC50 for "C[C@@H]1C=C[C@@H](C)N2CN1C(=O)c1c(O)c(=O)c(C(=O)NCc3c(F)cc(F)cc3F)cn12" strictly below 200 nM?
A. YES

###

experiment: Cytotoxicity assay in MT-4 cells; format: cell-based; conditions: human, uninfected MT-4 cells, 5 days, Cell Titer Glo; read-out: CC50
OBSERVED PROPERTY: CC50 at 5 days (µM)
Output spec: scalar in µM, unitless text.

Some molecules with known CC50 at 5 days results, for comparison:
C[C@H]1CC[C@H](C)N2CN1C(=O)c1c(O)c(=O)c(C(=O)NCc3ccc(F)cc3F)cn12 : 7.85
C[C@@H]1C=C[C@H](C)N2CN1n1cc(C(=O)NCc3c(F)cc(F)cc3F)c(=O)c(O)c1C2=O : 11.4

Below: the item to evaluate.
Q. // query CC50 at 5 days value for entry CCC1N2C(=O)c3c(O)c(=O)c(C(=O)NCc4c(F)cc(F)cc4F)cn3N1[C@H](C)C=C[C@@H]2C (stereo partly drawn)
A. 33.5

###

tested on: HIV-1 (IIIB); assay: Antiviral assay in MT-4 cells; assay type: cell-based; conditions: HIV-1 IIIB infected MT-4 cells, 5 days, Cell Titer Glo; read-out: MT4 EC50
Decision: EC50 beneath 2 nM gives yes; EC50 meeting or exceeding 2 nM gives no.

Q. Is the reported EC50 for C[C@H]1C=CC(C)(C)N2CN1n1cc(C(=O)NCc3ccc(F)cc3F)c(=O)c(O)c1C2=O [Example C92] strictly below 2 nM?
A. yes

Q. Is the reported EC50 for C[C@H]1CC[C@@H](C(F)F)N2CN1C(=O)c1c(O)c(=O)c(C(=O)NCc3c(F)cc(F)cc3F)cn12 [Example C78] strictly below 2 nM?
A. yes

Q. Is the reported EC50 for C[C@@H]1[C@H]2C[C@H]2[C@H](C)N2CN1n1cc(C(=O)NCc3c(F)cc(F)cc3F)c(=O)c(O)c1C2=O [Example C88] strictly below 2 nM?
A. yes

Q. Is the reported EC50 for C[C@@H]1CC(F)(F)[C@H](C)N2CN1n1cc(C(=O)NCc3c(F)cc(F)cc3F)c(=O)c(O)c1C2=O [Example C35] strictly below 2 nM?
A. yes

Q. Is the reported EC50 for C[C@@H]1CCC[C@H](C)N2CN1n1cc(C(=O)NCc3c(F)cc(F)cc3F)c(=O)c(O)c1C2=O [Example C21] strictly below 2 nM?
A. yes

Q. Is the reported EC50 for C[C@@H]1CCC(C)(C)N2CN1n1cc(C(=O)NCc3ccc(F)cc3F)c(=O)c(O)c1C2=O [Example C93] strictly below 2 nM?
A. no

Q. Is the reported EC50 for C[C@@H]1C/C=C\CN2CN1n1cc(C(=O)NCc3ccc(F)cc3F)c(=O)c(O)c1C2=O [Example C11] strictly below 2 nM?
A. yes

Q. Is the reported EC50 for C[C@@H]1C/C=C\[C@H](C)N2CN1n1cc(C(=O)NCc3c(F)cc(F)cc3F)c(=O)c(O)c1C2=O [Example C7] strictly below 2 nM?
A. no

Q. Is the reported EC50 for C[C@H]1CC[C@H](C)N2CN1C(=O)c1c(O)c(=O)c(C(=O)NCc3c(F)cc(F)cc3F)cn12 [Example C28] strictly below 2 nM?
A. yes

Q. Is the reported EC50 for C[C@H]1C=C[C@H](C)N2CN1C(=O)c1c(O)c(=O)c(C(=O)NCc3c(F)cc(F)cc3F)cn12 [Example C26] strictly below 2 nM?
A. no

Q. Is the reported EC50 for C[C@@H]1[C@H]2C[C@H]2[C@H](C)N2CN1n1cc(C(=O)NCc3c(F)cc(F)cc3F)c(=O)c(O)c1C2=O [Example C89] strictly below 2 nM?
A. yes

Q. Is the reported EC50 for O=C(NCc1c(F)cc(F)cc1F)c1cn2c(c(O)c1=O)C(=O)N1Cc3ccc(F)cc3CN2C1 [Example C4] strictly below 2 nM?
A. yes

Q. Is the reported EC50 for C[C@@H]1C[C@@H](F)[C@@H](F)CN2CN1n1cc(C(=O)NCc3ccc(F)cc3F)c(=O)c(O)c1C2=O (single isomer, unassigned) [Example C38] strictly below 2 nM?
A. yes
